The reported measurements were obtained from the supplement of paper PMC6992640.

cell viability values, listed per item
Test system: HCI03 (cells of an ER-positive luminal breast cancer xenograft)
Experimental Protocol: cell viability (% of vehicle); higher = less cytotoxic
Details: 10 µM; 72 h
Measured Endpoint: cell viability

{"Compound": "CC(=O)OC1(C(C)=O)CCC2C3CCC4=CC(=O)CCC4=C3C(c3ccc(N(C)C)cc3)CC21C (stereo unspecified) [Ulipristal acetate]", "Measured Endpoint": "cell viability", "Reported Result": 116}
{"Compound": "CCCCCN(C)CCC(O)(P(=O)([O-])O)P(=O)(O)O.O.[Na+] [Ibandronate sodium]", "Measured Endpoint": "cell viability", "Reported Result": 93.2}
{"Compound": "C#CC1(OC(C)=O)CCC2C3CCC4=CC(OC(C)=O)CCC4C3CCC21C (stereo unspecified) [Ethynodiol diacetate]", "Measured Endpoint": "cell viability", "Reported Result": 118}
{"Compound": "C[N+](C)(C)CC(=O)[O-]", "Measured Endpoint": "cell viability", "Reported Result": 140}
{"Compound": "CC1(O)CC(c2nc(-c3ccc4ccc(-c5ccccc5)nc4c3)c3c(N)nccn23)C1 (stereo unspecified)", "Measured Endpoint": "cell viability", "Reported Result": 109}
{"Compound": "COCCOC(=O)C1=C(C)NC(C)=C(C(=O)OCC=Cc2ccccc2)C1c1cccc([N+](=O)[O-])c1 (stereo unspecified)", "Measured Endpoint": "cell viability", "Reported Result": 90.1}
{"Compound": "CN(Cc1cnc2nc(N)nc(N)c2n1)c1ccc(C(=O)NC(CCC(=O)O)C(=O)O)cc1 (stereo unspecified) [Methotrexate]", "Measured Endpoint": "cell viability", "Reported Result": 115}
{"Compound": "CN(C)CCOC(C)(c1ccccc1)c1ccccn1.O=C(O)CCC(=O)O (stereo unspecified) [Doxylamine Succinate]", "Measured Endpoint": "cell viability", "Reported Result": 124}
{"Compound": "N.N.[Cl][Pt+2][Cl] [Cisplatin]", "Measured Endpoint": "cell viability", "Reported Result": 124}
{"Compound": "Cc1ccc(NC(=O)c2ccc(CN3CCN(C)CC3)cc2)cc1Nc1nc(-c2cccnc2)cs1", "Measured Endpoint": "cell viability", "Reported Result": 68.7}
{"Compound": "CN1CCC(OC(c2ccccc2)c2ccccc2)CC1.Cl [Diphenylpyraline HCl]", "Measured Endpoint": "cell viability", "Reported Result": 99.9}

---

Test system: HCI16 (cells of a triple-negative basal-like breast cancer xenograft)
Experimental Protocol: cell viability (% of vehicle); higher = less cytotoxic
Details: 10 µM; 72 h
# reported cell viability; entries follow
Measured Endpoint: cell viability

{"Compound": "CC(=O)Oc1ccc(C(c2ccc(OC(C)=O)cc2)c2ccccn2)cc1", "Reported Result": 70.9}
{"Compound": "CC(O)C1C(=O)N2C(C(=O)O)=C(SC3CNC(CNS(N)(=O)=O)C3)C(C)C12 (stereo not drawn)", "Reported Result": 85.2}
{"Compound": "O=S(=O)([O-])Oc1ccc(C(c2ccc(OS(=O)(=O)[O-])cc2)c2ccccn2)cc1.[Na+].[Na+] [Sodium Picosulfate]", "Reported Result": 117}

---

System: UCD52 (cells of a triple-negative basal-like breast cancer xenograft)
Experimental Protocol: cell viability of combination (% of vehicle); higher = less cytotoxic
Details: 1 µM; 72 h; partner dose: 10 nM
The entries below are paired with their reported cell viability of combination.

{"Molecule": "COc1ccccc1OCCNCC(O)COc1cccc2[nH]c3ccccc3c12 (stereo not drawn) [Carvedilol] + CC(C)C[C@H](NC(=O)[C@H](CCc1ccccc1)NC(=O)CN1CCOCC1)C(=O)N[C@@H](Cc1ccccc1)C(=O)N[C@@H](CC(C)C)C(=O)[C@@]1(C)CO1 [Carfilzomib]", "cell viability of combination": 61.4}
{"Molecule": "Cl.Nc1ccn(C2OC(CO)C(O)C2O)c(=O)n1 (stereo not drawn) [Cytarabine hydrochloride] + CC(C)C[C@H](NC(=O)[C@H](CCc1ccccc1)NC(=O)CN1CCOCC1)C(=O)N[C@@H](Cc1ccccc1)C(=O)N[C@@H](CC(C)C)C(=O)[C@@]1(C)CO1 [Carfilzomib]", "cell viability of combination": 77.1}
{"Molecule": "CO[C@H]1C[C@@H]2CC[C@@H](C)[C@@](O)(O2)C(=O)C(=O)N2CCCC[C@H]2C(=O)O[C@H]([C@H](C)C[C@@H]2CC[C@@H](O)[C@H](OC)C2)CC(=O)[C@H](C)/C=C(\\C)[C@@H](O)[C@@H](OC)C(=O)[C@H](C)C[C@H](C)/C=C/C=C/C=C/1C [Rapamycin (Sirolimus)] + CC(C)C[C@H](NC(=O)[C@H](CCc1ccccc1)NC(=O)CN1CCOCC1)C(=O)N[C@@H](Cc1ccccc1)C(=O)N[C@@H](CC(C)C)C(=O)[C@@]1(C)CO1 [Carfilzomib]", "cell viability of combination": 49.1}
{"Molecule": "C#Cc1cccc(Nc2ncnc3cc(OCCOC)c(OCCOC)cc23)c1.Cl [Erlotinib Hydrochloride] + CC(C)C[C@H](NC(=O)[C@H](CCc1ccccc1)NC(=O)CN1CCOCC1)C(=O)N[C@@H](Cc1ccccc1)C(=O)N[C@@H](CC(C)C)C(=O)[C@@]1(C)CO1 [Carfilzomib]", "cell viability of combination": 57.4}
{"Molecule": "COc1cc(C(=O)NS(=O)(=O)c2ccccc2C)ccc1Cc1cn(C)c2ccc(NC(=O)OC3CCCC3)cc12 [Zafirlukast] + CC(C)C[C@H](NC(=O)[C@H](CCc1ccccc1)NC(=O)CN1CCOCC1)C(=O)N[C@@H](Cc1ccccc1)C(=O)N[C@@H](CC(C)C)C(=O)[C@@]1(C)CO1 [Carfilzomib]", "cell viability of combination": 65}
{"Molecule": "CO[C@H]1C[C@@H]2CC[C@@H](C)[C@@](O)(O2)C(=O)C(=O)N2CCCC[C@H]2C(=O)O[C@H]([C@H](C)C[C@@H]2CC[C@@H](OC(=O)C(C)(CO)CO)[C@H](OC)C2)CC(=O)[C@H](C)/C=C(\\C)[C@@H](O)[C@@H](OC)C(=O)[C@H](C)C[C@H](C)/C=C/C=C/C=C/1C [Temsirolimus] + CC(C)C[C@H](NC(=O)[C@H](CCc1ccccc1)NC(=O)CN1CCOCC1)C(=O)N[C@@H](Cc1ccccc1)C(=O)N[C@@H](CC(C)C)C(=O)[C@@]1(C)CO1 [Carfilzomib]", "cell viability of combination": 49.5}
{"Molecule": "COc1cc2c(Oc3ccc(NC(=O)C4(C(=O)Nc5ccc(F)cc5)CC4)cc3F)ccnc2cc1OCCCN1CCOCC1 + CC(C)C[C@H](NC(=O)[C@H](CCc1ccccc1)NC(=O)CN1CCOCC1)C(=O)N[C@@H](Cc1ccccc1)C(=O)N[C@@H](CC(C)C)C(=O)[C@@]1(C)CO1 [Carfilzomib]", "cell viability of combination": 32.5}
{"Molecule": "CC(C)(C)NC(=O)C1CC2CCCCC2CN1CC(O)C(Cc1ccccc1)NC(=O)C(CC(N)=O)NC(=O)c1ccc2ccccc2n1.CS(=O)(=O)O (stereo not drawn) [Saquinavir mesylate] + CC(C)C[C@H](NC(=O)[C@H](CCc1ccccc1)NC(=O)CN1CCOCC1)C(=O)N[C@@H](Cc1ccccc1)C(=O)N[C@@H](CC(C)C)C(=O)[C@@]1(C)CO1 [Carfilzomib]", "cell viability of combination": 60.2}

---

// reported cell viability for each item listed
System: HCI11 (cells of an ER-positive luminal breast cancer xenograft)
Experimental Protocol: cell viability (% of vehicle); higher = less cytotoxic
Details: 10 µM; 72 h
Measured Endpoint: cell viability

{"Molecule": "CCCCCCCCCCCC(CC1OC(=O)C1CCCCCC)OC(=O)C(CC(C)C)NC=O (stereo not drawn)", "Measured Endpoint": "cell viability", "Reported Result": 110}
{"Molecule": "CC(C)(Oc1ccc(Cl)cc1)C(=O)O", "Measured Endpoint": "cell viability", "Reported Result": 99.3}
{"Molecule": "CCCCc1oc2ccc(NS(C)(=O)=O)cc2c1C(=O)c1ccc(OCCCN(CCCC)CCCC)cc1.Cl [Dronedarone HCl]", "Measured Endpoint": "cell viability", "Reported Result": 66.1}

---

Tested on: WHIM2 (cells of a triple-negative basal-like breast cancer xenograft)
Experimental Protocol: cell viability (% of vehicle); higher = less cytotoxic
Details: 10 µM; 72 h
Entries and their measured cell viability follow.
Measured Endpoint: cell viability

{"Molecule": "CCCCOc1cc(C(=O)OCCN(CC)CC)ccc1N.Cl [Oxybuprocaine HCl]", "Reported Result": 126}
{"Molecule": "O=c1[nH]cc(F)c(=O)[nH]1", "Reported Result": 106}
{"Molecule": "C[N+](C)(C)CCOC(N)=O.[Cl-] [Carbamoylcholine chloride]", "Reported Result": 127}

---

Tested on: HCI16
Experimental Protocol: cell viability (% of vehicle); higher = less cytotoxic
Details: 10 µM; 72 h
Measured Endpoint: cell viability

{"Compound": "CC(=O)OCC(=O)C1(O)CCC2C3CCC4=CC(=O)CCC4(C)C3C(=O)CC21C (centres undefined) [Cortisone acetate]", "Reported Result": 140}
{"Compound": "CC(C)n1c(C=CC(O)CC(O)CC(=O)O)c(-c2ccc(F)cc2)c2ccccc21 (centres undefined) [Fluvastatin]", "Reported Result": 109}
{"Compound": "O=C([O-])CCCc1ccccc1.[Na+] [Sodium Phenylbutyrate]", "Reported Result": 127}
{"Compound": "O=C(O)C=CC(=O)O.OCCOCCN1CCN(C2=Nc3ccccc3Sc3ccccc32)CC1.OCCOCCN1CCN(C2=Nc3ccccc3Sc3ccccc32)CC1 [Quetiapine Fumarate]", "Reported Result": 163}
